Cited source for all entries: patent US11078204B2

# target: PI3Kδ (p110δ/p85α) Recombinant Human Protein (Homo sapiens (Human), UniProt O00329)
# Sequence (O00329 whole entry): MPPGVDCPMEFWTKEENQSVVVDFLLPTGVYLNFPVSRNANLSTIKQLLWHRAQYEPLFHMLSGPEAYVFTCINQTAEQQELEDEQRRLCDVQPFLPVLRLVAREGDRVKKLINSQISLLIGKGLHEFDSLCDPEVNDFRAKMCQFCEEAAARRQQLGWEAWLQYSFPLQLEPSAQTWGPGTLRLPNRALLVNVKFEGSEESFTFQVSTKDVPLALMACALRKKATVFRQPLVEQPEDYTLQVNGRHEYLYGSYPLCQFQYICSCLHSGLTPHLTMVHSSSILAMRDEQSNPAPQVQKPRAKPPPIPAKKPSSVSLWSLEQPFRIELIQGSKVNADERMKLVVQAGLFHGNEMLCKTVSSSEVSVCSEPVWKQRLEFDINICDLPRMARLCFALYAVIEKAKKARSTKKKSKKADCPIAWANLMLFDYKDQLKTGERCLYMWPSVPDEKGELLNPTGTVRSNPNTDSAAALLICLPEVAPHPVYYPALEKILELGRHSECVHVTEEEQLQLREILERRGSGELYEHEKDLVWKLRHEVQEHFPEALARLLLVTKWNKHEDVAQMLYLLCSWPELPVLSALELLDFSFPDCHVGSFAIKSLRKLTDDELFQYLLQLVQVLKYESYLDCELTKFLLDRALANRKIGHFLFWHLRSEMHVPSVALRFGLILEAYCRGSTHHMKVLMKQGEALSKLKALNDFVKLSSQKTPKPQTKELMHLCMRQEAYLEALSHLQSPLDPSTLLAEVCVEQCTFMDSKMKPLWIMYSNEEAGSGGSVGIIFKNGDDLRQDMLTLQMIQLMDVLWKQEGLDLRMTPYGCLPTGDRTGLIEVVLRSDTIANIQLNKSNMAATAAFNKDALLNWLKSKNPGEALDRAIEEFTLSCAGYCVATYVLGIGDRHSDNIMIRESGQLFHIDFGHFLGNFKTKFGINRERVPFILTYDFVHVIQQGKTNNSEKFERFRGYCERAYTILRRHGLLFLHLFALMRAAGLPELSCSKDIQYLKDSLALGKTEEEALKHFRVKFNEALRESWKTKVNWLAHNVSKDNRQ
# Sequence (P27986 whole entry partner): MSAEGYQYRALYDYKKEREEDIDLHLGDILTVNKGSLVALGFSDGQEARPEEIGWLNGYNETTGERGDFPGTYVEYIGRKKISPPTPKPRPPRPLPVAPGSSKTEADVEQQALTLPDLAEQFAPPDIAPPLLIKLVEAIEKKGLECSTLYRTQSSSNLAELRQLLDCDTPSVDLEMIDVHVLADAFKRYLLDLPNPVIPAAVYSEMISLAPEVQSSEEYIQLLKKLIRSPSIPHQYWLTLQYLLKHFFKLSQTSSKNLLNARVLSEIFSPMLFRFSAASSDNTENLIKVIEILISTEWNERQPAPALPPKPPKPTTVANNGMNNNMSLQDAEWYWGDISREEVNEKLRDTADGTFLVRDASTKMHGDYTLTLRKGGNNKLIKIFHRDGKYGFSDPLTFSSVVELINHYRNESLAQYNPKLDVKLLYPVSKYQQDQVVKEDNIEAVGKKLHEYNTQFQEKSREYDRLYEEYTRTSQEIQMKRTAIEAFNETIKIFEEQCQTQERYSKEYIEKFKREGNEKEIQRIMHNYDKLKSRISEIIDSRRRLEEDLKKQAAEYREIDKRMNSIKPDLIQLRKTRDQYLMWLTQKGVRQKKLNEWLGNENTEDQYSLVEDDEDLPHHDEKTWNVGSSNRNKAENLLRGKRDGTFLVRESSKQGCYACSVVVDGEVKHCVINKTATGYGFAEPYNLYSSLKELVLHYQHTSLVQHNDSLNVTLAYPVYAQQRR
# run_description: PI3Kδ Scintillation Proximity Assay
# settings: 20 μM PIP2, 2 μM ATP, 3.4 nM PI3Kδ, 120 min
pIC50: −log10 of the molar value. Structures can show the parent of a compound that is named as a salt.
This section presents compounds with their documented pIC50 values.

# example entries with known answers
Nc1nc(C(F)(F)F)cn2c(-c3ccc4c(c3)CN(C(CO)C3CC3)C4=O)cnc12 (racemic) [Example 46, trifluoroacetate salt] : ≤ 5.70
CC(C1CC1)n1nc2ccc(-c3cnc4c(N)ncnn34)cc2n1 (racemic) [Example 20, trifluoroacetate salt] : ≤ 5.70

Here is the next item to consider.
Enter reported pIC50 observed with PI3Kδ (p110δ/p85α) Recombinant Human Protein (Homo sapiens (Human), UniProt O00329) for C[C@@H](C1CC1)N1Cc2cc(-c3cnc4c(N)nc(C(F)(F)F)cn34)cc(S(C)(=O)=O)c2C1=O [Example 3]
> 5.70

* * *

# target: PI3Kγ (p110γ) Recombinant Human Protein (Homo sapiens (Human), UniProt P48736)
# Sequence (P48736 whole entry): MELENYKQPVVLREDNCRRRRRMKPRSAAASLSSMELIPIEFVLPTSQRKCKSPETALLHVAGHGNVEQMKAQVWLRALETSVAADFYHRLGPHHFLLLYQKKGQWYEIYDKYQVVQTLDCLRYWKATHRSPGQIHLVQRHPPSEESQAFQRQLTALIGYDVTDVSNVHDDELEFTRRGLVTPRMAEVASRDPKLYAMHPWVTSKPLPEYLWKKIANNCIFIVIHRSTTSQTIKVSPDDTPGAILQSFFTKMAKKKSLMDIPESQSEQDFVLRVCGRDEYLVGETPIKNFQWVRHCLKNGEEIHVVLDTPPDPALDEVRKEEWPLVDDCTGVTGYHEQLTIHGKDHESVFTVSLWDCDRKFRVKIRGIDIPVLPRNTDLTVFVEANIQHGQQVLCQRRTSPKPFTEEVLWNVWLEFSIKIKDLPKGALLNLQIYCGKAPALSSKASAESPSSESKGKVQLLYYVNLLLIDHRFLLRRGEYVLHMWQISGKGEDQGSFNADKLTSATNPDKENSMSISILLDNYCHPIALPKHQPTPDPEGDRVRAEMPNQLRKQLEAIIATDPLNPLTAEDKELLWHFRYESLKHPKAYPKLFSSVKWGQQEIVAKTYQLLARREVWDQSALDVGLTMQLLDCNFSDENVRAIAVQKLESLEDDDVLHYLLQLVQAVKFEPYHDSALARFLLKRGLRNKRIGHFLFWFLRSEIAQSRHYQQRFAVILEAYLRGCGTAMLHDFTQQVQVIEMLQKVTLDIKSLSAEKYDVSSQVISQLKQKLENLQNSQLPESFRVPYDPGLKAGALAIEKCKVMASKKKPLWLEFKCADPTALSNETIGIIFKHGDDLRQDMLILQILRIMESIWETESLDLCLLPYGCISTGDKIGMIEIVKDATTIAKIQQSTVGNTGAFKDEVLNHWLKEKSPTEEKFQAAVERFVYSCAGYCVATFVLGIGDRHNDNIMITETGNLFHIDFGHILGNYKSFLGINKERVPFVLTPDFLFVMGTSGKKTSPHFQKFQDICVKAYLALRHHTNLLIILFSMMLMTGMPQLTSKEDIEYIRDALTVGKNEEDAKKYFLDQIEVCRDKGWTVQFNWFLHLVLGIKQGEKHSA
# run_description: PI3K-γ Scintillation Proximity Assay
# settings: 20 μM PIP2, 2 μM ATP, 13 nM PI3Kγ, 120 min
pIC50: −log10 of the molar value. Structures can show the parent of a compound that is named as a salt.
This section presents compounds with their documented pIC50 values.

# example entries with known answers
CCN1Cc2cc(-c3cnc4c(N)nc(C(F)(F)F)cn34)ccc2C1=O [Example 9, trifluoroacetate salt] : ≥ 6.30
C[C@@H](C1CC1)N1Cc2cc(-c3cnc4c(N)nc(C(F)(F)F)cn34)cc(Cl)c2C1=O [Example 1] : ≥ 7.00

Here is the next item to consider.
pIC50 lookup needed for CSc1cc(-c2cnc3c(N)nc(C(F)(F)F)cn23)cc2c1C(=O)N([C@@H](C)C1CC1)C2 [Example 2] , thanks.
≥ 7.00

* * *

# target: PI3Kγ (p110γ) Recombinant Human Protein (Homo sapiens (Human))
# run_description: PI3K-γ Scintillation Proximity Assay
# settings: 20 μM PIP2, 2 μM ATP, 13 nM PI3Kγ, 120 min
pIC50: −log10 of the molar value. Where a name gives a salt, the structure may show the parent alone.
metric: pIC50

# example entries with known answers
CC(=O)c1cc(-c2cnc3c(N)ncnn23)cc2c1C(=O)N([C@@H](C)C1CC1)C2 [Example 15, trifluoroacetate salt] : ≥ 7.00
C[C@@H](C1CC1)N1Cc2cc(-c3cnc4c(N)nc(C(=O)NC5CCOCC5O)cn34)ccc2C1=O (mixture of isomers) [Example 32, trifluoroacetate salt] : ≥ 7.00
CNC(=O)C(C1CC1)N1Cc2cc(-c3cnc4c(N)nc(C(F)(F)F)cn34)ccc2C1=O (racemic) [Example 45, trifluoroacetate salt] : > 5.70
CC(O)c1cc(-c2cnc3c(N)ncnn23)cc2c1C(=O)N([C@@H](C)C1CC1)C2 (mixture of isomers) [Example 16, trifluoroacetate salt] : ≥ 7.00

pIC50 lookup needed for Nc1nc(C(F)(F)F)cn2c(-c3ccc4c(c3)CN(C(CO)C3CC3)C4=O)cnc12 (racemic) [Example 46, trifluoroacetate salt] , thanks.
≥ 6.30

pIC50 lookup needed for C[C@@H](C1CC1)N1Cc2cc(-c3cnc4c(N)ncnn34)cc(C(O)(CO)C(F)(F)F)c2C1=O (mixture of isomers) [Example 39, trifluoroacetate salt] , thanks.
≥ 7.00
